- subject of test: T1, HA-Trf1 (Trf1 with a 10 aa hemagglutinin epitope at the N-terminus) (human, UniProt P54274 1-439)
- T1 construct: In vitro translated (major 60 kD and minor about 40 kD products), or expressed in HT1080 cells
- T1 sequence (looked up): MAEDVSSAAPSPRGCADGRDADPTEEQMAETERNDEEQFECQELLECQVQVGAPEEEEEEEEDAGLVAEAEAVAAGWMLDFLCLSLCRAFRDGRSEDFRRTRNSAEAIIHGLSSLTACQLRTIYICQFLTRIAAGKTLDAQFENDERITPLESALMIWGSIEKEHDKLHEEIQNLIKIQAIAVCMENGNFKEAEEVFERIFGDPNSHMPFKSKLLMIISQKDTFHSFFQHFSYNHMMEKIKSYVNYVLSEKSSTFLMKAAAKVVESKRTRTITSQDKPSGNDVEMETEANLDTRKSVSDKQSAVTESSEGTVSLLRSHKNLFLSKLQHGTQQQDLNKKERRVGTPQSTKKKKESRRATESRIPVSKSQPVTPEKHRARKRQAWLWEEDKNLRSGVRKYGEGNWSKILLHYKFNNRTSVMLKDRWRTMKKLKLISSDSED
- assay notes: EMSA with nuclear extract of HA-Trf1 expressing cells and telomeric DNA probe
result type: binding result

GST-Tin2-12 (Tin2 with N-terminal deletion of aa 1-120, fused to GST) (other, not shown: GST carrier at the N end (vector pGex4X-1, Pharmacia) and its vector linker) LSEAPVDLASKLQELEQEYGEPFLAAMEKLLFEYLCQLEKALPTPQAQQLQDVLSWMQPGVSITSSLAWRQYGVDMGWLLPECSVTDSVNLAEPMEQNPPQQQRLALHNPLPKAKPGTHLPQGPSSRTHPEPLAGRHFNLAPLGRRRVQSQWASTRGGHKERPTVMLFPFRNLGSPTQVISNPESKEEHAIYTADLAMGTRAPSNGKYKGPYQTLGGRALKENPVDLPATEQKE
binds
GST-Tin2-14 (Tin2 with C-terminal deletion of aa 276-354, fused to GST) (other, not shown: GST carrier at the N end (vector pGex4X-1, Pharmacia) and its vector linker) MATPLVAGPAALRFAAAASWQVVRGRCVEHFPRVLEFLRSLRAVAPGLVRYRHHERLCMGLKAKVVVELILQGRPWAQVLKALNHHFPESGPIVRDPKATKQDLRKILEAQETFYQQVKQLSEAPVDLASKLQELEQEYGEPFLAAMEKLLFEYLCQLEKALPTPQAQQLQDVLSWMQPGVSITSSLAWRQYGVDMGWLLPECSVTDSVNLAEPMEQNPPQQQRLALHNPLPKAKPGTHLPQGPSSRTHPEPLAGRHFNLAPLGRRRVQSQWAST
binds
GST-Tin2 (wild-type Tin2 with glutathione-S-transferase linked to the N-terminus) (other, also called Wild-type GST-Tin2; WT GST-Tin2; not shown: glutathione-S-transferase (GST) encoded by vector pGex4X-1 (Pharmacia), linked to the N-terminus; linker residues not gi) MATPLVAGPAALRFAAAASWQVVRGRCVEHFPRVLEFLRSLRAVAPGLVRYRHHERLCMGLKAKVVVELILQGRPWAQVLKALNHHFPESGPIVRDPKATKQDLRKILEAQETFYQQVKQLSEAPVDLASKLQELEQEYGEPFLAAMEKLLFEYLCQLEKALPTPQAQQLQDVLSWMQPGVSITSSLAWRQYGVDMGWLLPECSVTDSVNLAEPMEQNPPQQQRLALHNPLPKAKPGTHLPQGPSSRTHPEPLAGRHFNLAPLGRRRVQSQWASTRGGHKERPTVMLFPFRNLGSPTQVISNPESKEEHAIYTADLAMGTRAPSNGKYKGPYQTLGGRALKENPVDLPATEQKE
binds
